- SUBJECT OF TEST: TPβ (Homo sapiens, UniProt P21731)
- Construct: expressed in transfected cells
- ASSAY REMARKS: U46619-induced [Ca2+]i mobilization in HEK.TPβ cells
- Format: cell-based
- PROTOCOL CONDITIONS: antagonist 10 μM; 1 μM U46619; % of agonist-induced response in vehicle-treated cells; read-out: Percentage of Control, TPβ, 10 μM
The label is condition met for remaining activity at 10 µM below 30% and condition not met for remaining activity at 10 µM equal to or exceeding 30%.

Please review the following examples before continuing.
>>> classification("COc1ccc(-c2cccc(Oc3ccc(C(=O)NC4COC4)cc3S(=O)(=O)NC(=O)NC(C)(C)C)c2)cc1")
"condition not met"
>>> classification("COc1ccc(-c2cccc(Oc3ccc(-c4ccco4)cc3S(=O)(=O)NC(=O)NC(C)(C)C)c2)cc1")
"condition not met"
>>> classification("COCCNC(=O)c1ccc(Oc2cccc(-c3ccc(OC)cc3)c2)c(S(=O)(=O)NC(=O)NC(C)(C)C)c1")
"condition not met"
>>> classification("Cc1ccc(Nc2ccc([N+](=O)[O-])cc2S(=O)(=O)NC(=O)NC(C)(C)C)cc1 [BM573, reference compound]")
"condition met"
>>> classification("COc1ccc(-c2cccc(Oc3ccc(Br)cc3S(=O)(=O)NC(=O)NC(C)(C)C)c2)cc1")
"condition met"

// switching to the query compound
Query block: Here's an entry: COc1ccc(-c2cccc(Oc3ccc(C(=O)NCC4CC4)cc3S(=O)(=O)NC(=O)NC(C)(C)C)c2)cc1 . Is its remaining activity at 10 µM below 30%?
Result block: condition not met

====

- SUBJECT OF TEST: TPα (Homo sapiens, UniProt P21731)
- Construct: expressed in transfected cells
- ASSAY REMARKS: U46619-induced [Ca2+]i mobilization in HEK.TPα cells
- Format: cell-based
- PROTOCOL CONDITIONS: antagonist 10 μM; 1 μM U46619; % of agonist-induced response in vehicle-treated cells; read-out: Percentage of Control, TPα, 10 μM
The label is True for remaining activity at 10 µM below 70% and False for remaining activity at 10 µM equal to or exceeding 70%.

>>> classification("CCn1cc(-c2ccc(Oc3cccc(-c4ccc(OC)cc4)c3)c(S(=O)(=O)NC(=O)NC(C)(C)C)c2)cn1")
"True"
>>> classification("COc1ccc(-c2cccc(Oc3ccc(C(=O)NC4COC4)cc3S(=O)(=O)NC(=O)NC(C)(C)C)c2)cc1")
"False"
>>> classification("COc1ccc(-c2cccc(Oc3ccc(C#N)cc3S(=O)(=O)NC(=O)NC(C)(C)C)c2)cc1")
"True"
>>> classification("COc1ccc(-c2cccc(Oc3ccc(C(=O)N4CC(O)C4)cc3S(=O)(=O)NC(=O)NC(C)(C)C)c2)cc1")
"True"
>>> classification("COc1ccc(-c2cccc(Oc3ccc(C(=O)N4CCC4)cc3S(=O)(=O)NC(=O)NC(C)(C)C)c2)cc1")
"True"
>>> classification("COc1ccc(-c2cccc(Oc3ccc(C(=O)NCc4ccccn4)cc3S(=O)(=O)NC(=O)NC(C)(C)C)c2)cc1")
"False"
>>> classification("COc1ccc(-c2cccc(Oc3ccc(-c4c(C)noc4C)cc3S(=O)(=O)NC(=O)NC(C)(C)C)c2)cc1")
"False"
>>> classification("CCNC(=O)c1ccc(Oc2cccc(-c3ccc(OC)cc3)c2)c(S(=O)(=O)NC(=O)NC(C)(C)C)c1")
"False"
>>> classification("COc1ccc(-c2cccc(Oc3ccc(C(=O)NCC4CC4)cc3S(=O)(=O)NC(=O)NC(C)(C)C)c2)cc1")
"False"
>>> classification("COc1ccc(-c2cccc(Oc3ccc(N)cc3S(=O)(=O)NC(=O)NC(C)(C)C)c2)cc1")
"True"

Query block: Here's an entry: COc1ccc(-c2cccc(Oc3ccc(-c4ccoc4)cc3S(=O)(=O)NC(=O)NC(C)(C)C)c2)cc1 . Is its remaining activity at 10 µM below 70%?
Result block: True

Query block: Here's an entry: COc1ccc(-c2cccc(Oc3ccncc3S(=O)(=O)NC(=O)NC(C)(C)C)c2)cc1 . Is its remaining activity at 10 µM below 70%?
Result block: True

Query block: Here's an entry: COc1ccc(-c2cccc(Oc3ccc(Br)cc3S(=O)(=O)NC(=O)NC(C)(C)C)c2)cc1 . Is its remaining activity at 10 µM below 70%?
Result block: True

Query block: Here's an entry: COc1ccc(-c2cccc(Oc3ccc(C(=O)O)cc3S(=O)(=O)NC(=O)NC(C)(C)C)c2)cc1 . Is its remaining activity at 10 µM below 70%?
Result block: True

Query block: Here's an entry: COc1ccc(-c2cccc(Oc3ccc(-c4ccncc4)cc3S(=O)(=O)NC(=O)NC(C)(C)C)c2)cc1 . Is its remaining activity at 10 µM below 70%?
Result block: False

====

Measured TPα:TPβ Selectivity Ratio by item
- SUBJECT OF TEST: TPα (Homo sapiens, UniProt P21731)
- Construct: expressed in transfected cells
- Sequence (P21731 1-343): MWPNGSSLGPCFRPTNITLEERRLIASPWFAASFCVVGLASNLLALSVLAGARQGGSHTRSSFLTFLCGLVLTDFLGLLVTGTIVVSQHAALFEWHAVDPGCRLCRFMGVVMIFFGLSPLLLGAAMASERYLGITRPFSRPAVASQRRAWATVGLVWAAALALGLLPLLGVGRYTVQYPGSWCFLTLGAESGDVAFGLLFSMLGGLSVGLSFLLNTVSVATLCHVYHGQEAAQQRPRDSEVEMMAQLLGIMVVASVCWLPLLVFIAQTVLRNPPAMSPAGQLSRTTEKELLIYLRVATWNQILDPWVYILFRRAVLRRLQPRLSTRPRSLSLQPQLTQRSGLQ
- ASSAY REMARKS: U46619-induced [Ca2+]i mobilization in HEK.TPα cells
- Assay type: cell-based
- PROTOCOL CONDITIONS: IC50 TPα/IC50 TPβ
Output spec: single numeric token, no unit.

Consider the following illustrative entries.
>>> measured_value("CCCCCNC(=O)NS(=O)(=O)c1cc([N+](=O)[O-])ccc1Oc1cccc(-c2ccc(C)cc2)c1")
7.5
>>> measured_value("CC(C)(C)NC(=O)NS(=O)(=O)c1cc([N+](=O)[O-])ccc1Oc1cccc(-c2ccc(C(F)(F)F)cc2)c1")
1
>>> measured_value("CC(=O)c1ccc(-c2cccc(Oc3ccc([N+](=O)[O-])cc3S(=O)(=O)NC(=O)NC(C)(C)C)c2)cc1")
5.5
>>> measured_value("COC(=O)c1ccc(-c2cccc(Oc3ccc([N+](=O)[O-])cc3S(=O)(=O)NC(=O)NC(C)(C)C)c2)cc1")
3

Query block: Reported TPα:TPβ Selectivity Ratio, molecule COc1cccc(Oc2ccc([N+](=O)[O-])cc2S(=O)(=O)NC(=O)NC(C)(C)C)c1 [Compound 9h, reference compound] : ____
Result block: 2.3

====

- SUBJECT OF TEST: TPβ (Homo sapiens, UniProt P21731)
- Construct: expressed in transfected cells
- ASSAY REMARKS: U46619-induced [Ca2+]i mobilization in HEK.TPβ cells
- Type: cell-based
- PROTOCOL CONDITIONS: side-by-side comparison; n=6; Table 2.6; read-out: IC50 values for inhibition of U46619-mediated [Ca2+]i, TPβ
QUANTITY NAME: IC50 (nM)
Quick reminder: number only, in nM, skip the unit.

>>> measured_value("COc1ccc(-c2cccc(Oc3ccc([N+](=O)[O-])cc3S(=O)(=O)NC(=O)NC(C)(C)C)c2)cc1 [TP20]")
9.61

# next molecule below
Query block: Reported IC50, molecule COc1ccc(-c2cccc(Oc3ccc(C#N)cc3S(=O)(=O)NC(=O)NC(C)(C)C)c2)cc1 [NTP4] : ____
Result block: 60.4

====

- SUBJECT OF TEST: TPβ (Homo sapiens)
- Construct: expressed in transfected cells
- ASSAY REMARKS: U46619-induced [Ca2+]i mobilization in HEK.TPβ cells
- Assay type: cell-based
- PROTOCOL CONDITIONS: antagonist 1 μM; 1 μM U46619; % of agonist-induced response in vehicle-treated cells; read-out: Percentage of Control, TPβ, 1 μM
Measured remaining activity at 1 µM by item
Quick reminder: number only, in %, skip the unit.

>>> measured_value("COc1ccc(-c2cccc(Oc3ccc([N+](=O)[O-])cc3S(=O)(=O)NC(=O)NC(C)(C)C)c2)cc1")
12.6

Query block: Reported remaining activity at 1 µM, molecule COc1ccc(-c2cccc(Oc3ccc(C(C)=O)cc3S(=O)(=O)NC(=O)NC(C)(C)C)c2)cc1 : ____
Result block: 46.3

Query block: Reported remaining activity at 1 µM, molecule Cc1ccc(Nc2ccc([N+](=O)[O-])cc2S(=O)(=O)NC(=O)NC(C)(C)C)cc1 [BM573, reference compound] : ____
Result block: 23.8

Query block: Reported remaining activity at 1 µM, molecule COc1ccc(-c2cccc(Oc3ccc(-c4cn[nH]c4)cc3S(=O)(=O)NC(=O)NC(C)(C)C)c2)cc1 : ____
Result block: 45
